experiment: Inhibition of Influenza A virus A/California/04/2009 (H1N1) N-terminal his tagged domain of PA endonuclease expressed in Escherichia coli BL21 (DE3) cells preincubated with enzyme for 1 hr followed by RNA addition and measured after 90 mins by MALDI-FTICR-MS analysis
readout: log10(IC50) (log10 of the value in nM)
Units before log transform: nM; reported quantity: IC50; transform: log10.

Sample answers from the record:
COc1cnccc1CCNC(=O)c1nc(C(C)(C)NC(=O)OCc2ccccc2)[nH]c(=O)c1O    3.29
Nc1ncnc2c1ncn2CCNC(=O)c1nc(-c2ccccc2C(F)(F)F)[nH]c(=O)c1O    2.46
COc1cnccc1CCNC(=O)c1nc(-c2ccccc2F)[nH]c(=O)c1O    2.91
COc1cnccc1CCNC(=O)c1nc(-c2ccccc2C(F)(F)F)[nH]c(=O)c1O    2.62
COc1cnccc1CCNC(=O)c1nc(-c2cccc(C(F)(F)F)c2)[nH]c(=O)c1O    3.66

Need log10(IC50) of O=C1NCCc2cccc(c2)OC/C=C/COc2cccc(c2)-c2nc1c(O)c(=O)[nH]2 , thanks.
4.10

Need log10(IC50) of O=C1NCCc2cccc(c2)OC/C=C\COc2cccc(c2)-c2nc1c(O)c(=O)[nH]2 , thanks.
3.70

Need log10(IC50) of COc1cnccc1CCNC(=O)c1nc(-c2c(F)cccc2F)[nH]c(=O)c1O , thanks.
3.05

----------
assay: Inhibition of Influenza A virus A/California/04/2009 (H1N1) N-terminal his tagged domain of PA endonuclease expressed in Escherichia coli BL21 (DE3) cells preincubated with enzyme for 1 hr followed by RNA addition and measured after 90 mins by MALDI-FTICR-MS analysis
pIC50: −log10 of the molar value.
Assign class by pIC50: not lower than 6 means true; lower than 6 means false.

COc1cnccc1CCNC(=O)c1nc(Cc2ccccc2C(F)(F)F)[nH]c(=O)c1O    false
COc1cnccc1CCNC(=O)c1nc(-c2ccccc2C)[nH]c(=O)c1O    true
O=C1NCCc2cccc(c2)OCCCCOc2cccc(c2)-c2nc1c(O)c(=O)[nH]2    false

Check if pIC50 >= 6 (inclusive). Item: COc1cc(CCNC(=O)c2nc(-c3ccccc3C(F)(F)F)[nH]c(=O)c2O)ccc1O
true

Check if pIC50 >= 6 (inclusive). Item: COc1cnccc1CCNC(=O)c1nc(-c2ccc(C(F)(F)F)cc2)[nH]c(=O)c1O
false

Check if pIC50 >= 6 (inclusive). Item: CC(C)(NC(=O)OCc1ccccc1)c1nc(C(=O)NCc2ccc(F)cc2)c(O)c(=O)[nH]1
false

Check if pIC50 >= 6 (inclusive). Item: COc1cc(CCNC(=O)c2nc(C(C)(C)NC(=O)OCc3ccccc3)[nH]c(=O)c2O)ccc1O
true

Check if pIC50 >= 6 (inclusive). Item: O=C1c2c(O)c(=O)ccn2N([C@@H]2c3ccccc3SCc3c2ccc(F)c3F)C2COCCN12 (some centres not stated)
true

Check if pIC50 >= 6 (inclusive). Item: Cc1nnc(C(=O)NC(C)(C)c2nc(C(=O)NCc3ccc(F)cc3)c(O)c(=O)n2C)o1
false

Check if pIC50 >= 6 (inclusive). Item: CC(C)(NC(=O)OCc1ccccc1)c1nc(C(=O)NCCn2cnc3c(N)ncnc32)c(O)c(=O)[nH]1
false

Check if pIC50 >= 6 (inclusive). Item: CC(C)(NC(=O)OCc1ccccc1)c1nc(O)c(O)c(C(=O)NCCc2ccc(F)cc2)n1
false

Origin of values: ChEMBL document CHEMBL5331099
